- Test system: Enterococcus faecium
- assay comment: Antibacterial activity against Enterococcus faecium EFM64 by broth microdilution method
- Assay type: functional
Answer each item with its documented MIC.

COc1ccc(C(=O)C2=C(O)C(=O)N(c3nnc(SCc4ccccc4)s3)C2c2ccccc2O)cc1 (stereo not drawn): > 100 µM
O=C(C1=C(O)C(=O)N(c2nnc(SCc3ccccc3Cl)s2)C1c1ccc(O)cc1)c1cc2ccccc2o1 (stereo not drawn): > 100 µM
COc1cc(C2C(C(=O)c3cc4ccccc4o3)=C(O)C(=O)N2c2nnc(SCc3ccccc3)s2)ccc1O (stereo not drawn): > 100 µM
O=C(C1=C(O)C(=O)N(c2nnc(SCc3ccccc3)s2)C1c1cccc(O)c1O)c1cc2ccccc2o1 (stereo not drawn): 25 µM
O=C(C1=C(O)C(=O)N(c2nnc(SCc3ccccc3Cl)s2)C1c1cccc(O)c1)c1cc2ccccc2o1 (stereo not drawn): > 100 µM
O=C(C1=C(O)C(=O)N(c2nnc(SCc3ccccc3Cl)s2)C1c1ccccc1O)c1cc2ccccc2s1 (stereo not drawn): > 100 µM
O=C(C1=C(O)C(=O)N(c2nnc(SCc3ccccc3)s2)C1c1ccc(O)c(O)c1)c1cc2ccccc2o1 (stereo not drawn): > 100 µM

Now for a further compound.
[ask] Return reported MIC; argument: O=C(C1=C(O)C(=O)N(c2nnc(SCc3ccccc3Cl)s2)C1c1ccc(O)c(Br)c1)c1cc2ccccc2o1 (stereo not drawn)
[reply] > 100 µM
